Target: TCF/LEF luciferase reporter in DLD1 cells (Homo sapiens)
Sequence (P35222 2-781): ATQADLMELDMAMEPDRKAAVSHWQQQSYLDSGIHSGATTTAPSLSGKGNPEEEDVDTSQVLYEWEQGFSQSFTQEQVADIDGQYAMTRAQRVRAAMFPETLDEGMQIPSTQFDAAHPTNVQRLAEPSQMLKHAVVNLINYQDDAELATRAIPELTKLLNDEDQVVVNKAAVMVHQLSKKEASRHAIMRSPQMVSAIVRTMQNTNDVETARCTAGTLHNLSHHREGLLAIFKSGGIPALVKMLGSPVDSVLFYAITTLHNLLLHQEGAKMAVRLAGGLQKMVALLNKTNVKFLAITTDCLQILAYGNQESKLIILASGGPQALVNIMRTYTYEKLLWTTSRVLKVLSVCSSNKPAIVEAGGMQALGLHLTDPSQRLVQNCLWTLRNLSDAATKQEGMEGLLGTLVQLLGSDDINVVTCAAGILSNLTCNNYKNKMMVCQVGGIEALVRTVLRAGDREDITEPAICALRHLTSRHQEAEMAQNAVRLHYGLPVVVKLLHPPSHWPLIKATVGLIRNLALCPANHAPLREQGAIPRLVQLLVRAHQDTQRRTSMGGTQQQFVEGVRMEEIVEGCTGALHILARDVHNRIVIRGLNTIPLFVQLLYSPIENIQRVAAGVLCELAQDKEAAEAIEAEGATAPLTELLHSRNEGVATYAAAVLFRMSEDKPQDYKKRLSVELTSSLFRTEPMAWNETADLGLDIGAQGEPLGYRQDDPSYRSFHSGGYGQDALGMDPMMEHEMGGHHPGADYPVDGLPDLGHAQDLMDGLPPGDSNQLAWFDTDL
Assay: TCF reporter assay in DLD1 cells (4% or 20% FBS)
Assay type: cell-based
Settings: read-out: DLD1 4% Abs IC50; DLD1 TCF reporter, 4% FBS
Experimental Readout: IC50

Here are 6 substances together with their reported answers.
Ac-PL3-Asp-Npg-B5-Asp-3COOHF-Aib-Ala-Phe-TriAzLys*3-PyrS2-3Thi-BztA-sCH2S*3-Ala-NH2 [I-262]	≤ 1000 nM
Ac-PL3-Asp-Npg-B5-Asp-3COOHF-Cbg-Ala-Phe-Lys*3-PyrS2-2F3MeF-BztA-GlnR*3-Leu-Ser-NH2 [I-140]	≤ 1000 nM
Ac-PL3-Asn-Npg-B5-Asp-3COOHF-Ala-Ala-Phe-Lys*3-PyrS2-2F3MeF-BztA-GlnR*3-Leu-Ser-NH2 [I-142]	> 5000 nM
Ac-PL3-Asn-Npg-B5-Asp-3COOHF-Aib-Ala-Phe-Lys*3-PyrS2-2F3MeF-BztA-GlnR*3-Leu-Ser-NH2 [I-144]	1000 to 5000 nM
Ac-PL3-Asp-Cha-B5-Asp-3COOHF-Ala-Ala-Phe-Lys*3-PyrS2-2F3MeF-BztA-GlnR*3-Leu-NH2 [I-106]	≤ 1000 nM
Ac-PL3-aThr-Npg-B5-Asp-3COOHF-Aib-Ala-Phe-Lys*3-PyrS2-3Thi-BztA-GlnR*3-Ala-NH2 [I-163]	> 5000 nM

Could you now consider this next substance?
Query block: // Input: Ac-PL3-Asp-Npg-B5-Asp-3COOHF-Ala-Ala-Phe-Lys*3-PyrS2-3Thi-BztA-GlnR*3-Prool [I-64] . Output its IC50 only.
Result block: 1000 to 5000 nM
